Attribution: patent US20120023600A1

Biological target: T1, recombinant human DKK1 (human, UniProt O94907 32-266)
T1 sequence: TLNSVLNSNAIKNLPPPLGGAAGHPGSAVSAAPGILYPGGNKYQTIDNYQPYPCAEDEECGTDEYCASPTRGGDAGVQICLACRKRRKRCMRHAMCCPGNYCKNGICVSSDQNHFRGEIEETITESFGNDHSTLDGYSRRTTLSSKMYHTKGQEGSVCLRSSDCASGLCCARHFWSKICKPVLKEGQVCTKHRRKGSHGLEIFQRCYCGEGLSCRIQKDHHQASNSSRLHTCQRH
Test: cell-based or functional assay
Consider the cut-off 0.6 nM. If the recorded TCF/LEF luc assay w/Kremen: EC50 is strictly smaller, the label is label 1; if not, the label is label 0.

{"binder": "MOR04914 (Fab, V domains shown) VH: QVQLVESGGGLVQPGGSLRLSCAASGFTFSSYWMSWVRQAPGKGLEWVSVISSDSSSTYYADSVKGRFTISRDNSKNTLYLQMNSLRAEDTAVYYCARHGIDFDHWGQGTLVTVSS VL: DIALTQPASVSGSPGQSITISCTGTSSDLGGYNYVSWYQQHPGKAPKLMIYDVNNRPSGVSNRFSGSKSGNTASLTISGLQAEDEADYYCQSYTYTPISPVFGGGTKLTVLG", "qualitative-label": "label 0"}
{"binder": "MOR04948 (Fab, V domains shown) VH: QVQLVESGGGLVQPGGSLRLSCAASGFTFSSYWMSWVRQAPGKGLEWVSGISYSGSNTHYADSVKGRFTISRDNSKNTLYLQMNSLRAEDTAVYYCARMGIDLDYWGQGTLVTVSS VL: DIALTQPASVSGSPGQSITISCTGTSSDVGGFNYVSWYQQHPGKAPKLMIHDGSNRPSGVSNRFSGSKSGNTASLTISGLQAEDEADYYCQTWDSLSFFVFGGGTKLTVLG", "qualitative-label": "label 1"}
{"binder": "MOR04945 (Fab, V domains shown) VH: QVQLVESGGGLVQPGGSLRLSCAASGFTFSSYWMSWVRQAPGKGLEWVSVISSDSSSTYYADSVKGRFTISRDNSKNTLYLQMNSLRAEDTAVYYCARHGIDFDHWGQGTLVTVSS VL: DIALTQPASVSGSPGQSITISCTGTSSDLGGYNYVSWYQQHPGKAPKLMIYDVNNRPSGVSNRFSGSKSGNTASLTISGLQAEDEADYYCQTYDQIKLSAVFGGGTKLTVLG", "qualitative-label": "label 1"}
{"binder": "MOR04910 (Fab, V domains shown, also called anti-DKK1 FAb MOR04910) VH: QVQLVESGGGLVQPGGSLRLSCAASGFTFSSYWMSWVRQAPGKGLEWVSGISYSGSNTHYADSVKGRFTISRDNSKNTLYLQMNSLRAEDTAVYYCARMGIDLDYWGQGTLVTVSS VL: DIALTQPASVSGSPGQSITISCTGTSSDVGGFNYVSWYQQHPGKAPKLMIHDGSNRPSGVSNRFSGSKSGNTASLTISGLQAEDEADYYCQSWDVSPITAVFGGGTKLTVLG", "qualitative-label": "label 1"}
{"binder": "MOR04907 (Fab, V domains shown) VH: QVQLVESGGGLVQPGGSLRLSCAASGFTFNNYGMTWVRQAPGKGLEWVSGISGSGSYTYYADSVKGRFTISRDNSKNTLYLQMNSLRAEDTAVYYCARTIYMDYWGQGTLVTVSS VL: DIVLTQSPATLSLSPGERATLSCRASQNLFSPYLAWYQQKPGQAPRLLIYGASNRATGVPARFSGSGSGTDFTLTISSLEPEDFAVYYCQQYLSLPTTFGQGTKVEIKR", "qualitative-label": "label 0"}
{"binder": "MOR04947 (Fab, V domains shown) VH: QVQLVQSGAEVKKPGESLKISCKGSGYSFTNYYIGWVRQMPGKGLEWMGIIVPGTSYTIYSPSFQGQVTISADKSISTAYLQWSSLKASDTAMYYCARGIPFRMRGFDYWGQGTLVTVSS VL: DIVLTQPPSVSGAPGQRVTISCSGSSSNIGSSFVNWYQQLPGTAPKLLIGNNSNRPSGVPDRFSGSKSGTSASLAITGLQSEDEADYYCASFDMGSPNVVFGGGTKLTVLG", "qualitative-label": "label 0"}
{"binder": "MOR04920 (Fab, V domains shown) VH: QVQLVESGGGLVQPGGSLRLSCAASGFTFSSYWMSWVRQAPGKGLEWVSSIEHKDAGYTTWYAAGVKGRFTISRDNSKNTLYLQMNSLRAEDTAVYYCARHGIDFDHWGQGTLVTVSS VL: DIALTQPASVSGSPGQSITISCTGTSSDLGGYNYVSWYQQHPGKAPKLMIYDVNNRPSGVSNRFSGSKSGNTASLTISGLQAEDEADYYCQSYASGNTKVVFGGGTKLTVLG", "qualitative-label": "label 0"}
{"binder": "MOR04946 (Fab, V domains shown) VH: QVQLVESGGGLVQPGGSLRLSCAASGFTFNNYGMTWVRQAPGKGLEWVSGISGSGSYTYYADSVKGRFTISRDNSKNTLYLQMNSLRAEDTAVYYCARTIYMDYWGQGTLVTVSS VL: DIVLTQSPATLSLSPGERATLSCRASQNLFSPYLAWYQQKPGQAPRLLIYGASNRATGVPARFSGSGSGTDFTLTISSLEPEDFAVYYCQQYLTLPLTFGQGTKVEIKR", "qualitative-label": "label 1"}
